- TEST PROTOCOL: Acute toxicity testing by intravenous administration
- Type: in vivo
- SETTINGS: mouse, in vivo, male Crj:CD1 mice, observed up to 7 days, read-out: Maximum Tolerated Dose
ATTRIBUTE MEASURED: MTD at 7 days

Please supply the value of reported MTD at 7 days for the item Nc1ccc(/C=C/C=C/c2nc3ccc(O)cc3o2)c(O)c1
≥ 10 mg/kg

* * *

- TEST PROTOCOL: Blood-brain barrier permeability after intravenous administration
- Format: in vivo
- SETTINGS: Slc:ICR, mouse, not told; mice, two minutes after intravenous administration; read-out: content in Brain (blood-brain barrier permeability)
# tissue uptake at 2 min values compiled below
Just the number in %ID/g, nothing appended.

Before answering, review these 2 worked examples.
COMPOUND | READOUT UNITS | TEST RESULT
CNc1ccc(/C=C/C=C/c2nc3ccccc3s2)cc1 [BF-187] | %ID/g | 3.6
CNc1ccc(/C=C/C=C/c2nc3ccccc3[nH]2)cc1 [BF-188] | %ID/g | 4.8

Next up:
Please supply the value of reported tissue uptake at 2 min for the item CNc1ccc(/C=C/C=C/c2nc3ccccc3o2)cc1 [BF-185]
3.9
